Reference source: ChEMBL document CHEMBL5291721

These compounds were tested on UniProt:P30556; AC50 is the recorded read-out.
Sequence (P30556 whole entry): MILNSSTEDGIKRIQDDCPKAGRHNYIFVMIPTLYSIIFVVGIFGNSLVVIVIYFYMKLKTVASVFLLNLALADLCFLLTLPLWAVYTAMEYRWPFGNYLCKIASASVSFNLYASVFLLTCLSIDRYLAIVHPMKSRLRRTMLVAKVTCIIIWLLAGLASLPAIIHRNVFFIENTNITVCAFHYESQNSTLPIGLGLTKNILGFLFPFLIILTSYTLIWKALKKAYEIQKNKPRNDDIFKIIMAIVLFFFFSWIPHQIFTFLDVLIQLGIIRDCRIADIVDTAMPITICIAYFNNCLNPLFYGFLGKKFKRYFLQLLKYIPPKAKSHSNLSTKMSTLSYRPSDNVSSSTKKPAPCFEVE
Where a SMILES comes first, the peptide text is derived from it. [ ]: non-standard residue; d: D form. pGlu = O=C1CC[C@@H](C(=O)O)N1; Thz = O=C(O)[C@@H]1CSCN1

# compound, AC50
records = [
    ("CC(Cc1cccc(C(F)(F)F)c1)NCCOC(=O)c1ccccc1 (centres undefined)", "> 30 µM"),
    ("CCOC(=O)c1ccc(C#Cc2ccc3c(c2)C(C)(C)CCS3)nc1", "> 30 µM"),
    ("O=C1CC[C@@H](C(=O)N2CSC[C@H]2C(=O)O)N1 [PIDOTIMOD] ([pGlu]-[Thz]-OH)", "> 30 µM"),
    ("CCCN1CC(NS(=O)(=O)N(CC)CC)CC2Cc3c(O)cccc3CC21 (centres undefined) [QUINAGOLIDE]", "> 30 µM"),
    ("CCCNC(=O)NS(=O)(=O)c1ccc(Cl)cc1 [CHLORPROPAMIDE]", "> 30 µM"),
    ("Cc1cc(C)nc(NS(=O)(=O)c2ccc(N)cc2)n1", "> 10 µM"),
    ("CCCCCCCN(CC)CCCC(O)c1ccc(NS(C)(=O)=O)cc1 (centres undefined) [IBUTILIDE]", "> 30 µM"),
    ("O=C(CCCN1CCC(O)(c2ccc(Br)cc2)CC1)c1ccc(F)cc1", "> 30 µM"),
    ("CC(C)Cc1ccc([C@H](C)C(=O)O)cc1", "> 30 µM"),
]

* * *

Assay system Endothelin receptor type B (Homo sapiens); read-out recorded as AC50. Further: assay procedure not described here.

# molecule, AC50
data = [
    ("NNC(=O)c1ccncc1 [ISONIAZID]", "> 30 µM"),
    ("COc1cc(N)c(Cl)cc1C(=O)NC1CCN(CCCOc2ccc(F)cc2)CC1OC (stereo unspecified) [CISAPRIDE]", "> 30 µM"),
    ("O=C(/C=C/c1cccc(S(=O)(=O)Nc2ccccc2)c1)NO [BELINOSTAT]", "> 10 µM"),
    ("Cc1ccc(C)c(OCCCC(C)(C)C(=O)O)c1 [GEMFIBROZIL]", "> 30 µM"),
    ("C[C@@H]1C[C@H]2[C@@H]3C[C@H](F)C4=CC(=O)C=C[C@]4(C)[C@@]3(F)[C@@H](O)C[C@]2(C)[C@@]1(OC(=O)c1ccco1)C(=O)SCF [FLUTICASONE FUROATE]", "> 10 µM"),
    ("O=C(O)COCCN1CCN(C(c2ccccc2)c2ccc(Cl)cc2)CC1 (stereo unspecified) [CETIRIZINE]", "> 30 µM"),
    ("CN(CCOc1ccc(CC2SC(=O)NC2=O)cc1)c1ccccn1 (stereo unspecified) [ROSIGLITAZONE]", "> 30 µM"),
    ("CCCCOc1ccc(C(=O)CCN2CCCCC2)cc1 [DYCLONINE]", "> 30 µM"),
    ("O=c1c(O)c(-c2ccc(O)c(O)c2)oc2cc(O)cc(O)c12 [QUERCETIN]", "> 30 µM"),
    ("CC(O)(CS(=O)(=O)c1ccc(F)cc1)C(=O)Nc1ccc(C#N)c(C(F)(F)F)c1 (stereo unspecified) [BICALUTAMIDE]", "> 30 µM"),
    ("CN(Cc1cnc2nc(N)nc(N)c2n1)c1ccc(C(=O)N[C@@H](CCC(=O)O)C(=O)O)cc1 [METHOTREXATE]", "> 30 µM"),
]
